Target: HLA-DR11 (DRB1*1101) (Homo sapiens, UniProt P01903+P01911, A100R/A169T/A87E/I96F/K41T/L162R/M171V/P40S/Q125H/Q178H/Q39Y/Q99D/R42S/S66Y/T262R/V115G/W38E)
Construct: endogenous in cells
Assay: HLA II/peptide competition binding assay, HLA-DR11
Ends that are not written are not given here.
PROPERTY: IC50

1) AILIWMYYHGPRHSDEH [Peptide A17H]: > 100 µM

----------
Molecular target: HLA-DP4 (DPB1*0401) (Homo sapiens, UniProt P04440+P20036)
Construct: endogenous in cells
Assay: HLA II/peptide competition binding assay, HLA-DP401
pIC50: −log10 of the molar value. Ends that are not written are not given here.
PROPERTY: pIC50

1. AILIWMYYHGPRHSDEH [Peptide A17H]: < 4.00

----------
Tested on: HLA II molecules predominant in the Caucasian population
Assay: Binding activity with respect to the 12 HLA II molecules (summary of the panel)
Set-up: species or system human
Settings: of 12 HLA II molecules; good affinity = IC50 less than 1000 nM
Measured Number of alleles bound, listed per entry.
PROPERTY: Number of alleles bound

1. CC(C)C[C@H](NC(=O)[C@@H]1CCCN1C(=O)[C@H](CC(=O)O)NC(=O)[C@@H](N)Cc1c[nH]cn1)C(=O)N1CCC[C@H]1C(=O)N[C@@H](Cc1c[nH]cn1)C(=O)N[C@@H](CO)C(=O)N1CCC[C@H]1C(=O)N[C@@H](CO)C(=O)N[C@@H](CC(=O)O)C(=O)N[C@@H](CO)C(=O)N[C@@H](C)C(=O)NCC(=O)N[C@@H](CC(N)=O)C(=O)N[C@@H](CC(=O)O)C(=O)O [Peptide H15D]: 0
2. CC[C@H](C)[C@H](NC(=O)[C@H](CS)NC(=O)[C@H](CO)NC(=O)[C@@H]1CCCN1C(=O)[C@H](CCCNC(=N)N)NC(=O)[C@H](CCCCN)NC(=O)[C@H](CCC(N)=O)NC(=O)[C@@H]1CCCN1C(=O)[C@H](CCCNC(=N)N)NC(=O)[C@H](CCCNC(=N)N)NC(=O)[C@@H](NC(=O)CNC(=O)[C@H](CC(=O)O)NC(=O)[C@@H](N)CCCNC(=N)N)C(C)C)C(=O)NCC(=O)N[C@@H](CS)C(=O)N[C@@H](CCCCN)C(=O)NCC(=O)N[C@H](C(=O)O)[C@@H](C)O: 2

----------
Molecular target: HLA-DP4 (DPB1*0402) (Homo sapiens, UniProt P04440+P20036, A65V/A84D/A85E/L207M)
Construct: endogenous in cells
Test: HLA II/peptide competition binding assay, HLA-DP402
Ends that are not written are not given here.
PROPERTY: IC50

1) AILIWMYYHGPRHSDEH [Peptide A17H]: > 100 µM

----------
Target: HLA-DRB5 (DRB5*0101) (Homo sapiens, UniProt P01903+Q30154)
Construct: endogenous in cells
Experiment: HLA II/peptide competition binding assay, HLA-DRB5
pIC50: −log10 of the molar value. Ends that are not written are not given here.
PROPERTY: pIC50

1) AILIWMYYHGPRHSDEH [Peptide A17H]: 7.38
